test system: HepG2; experiment: cell viability relative to DMSO; higher = less toxic; details: 72 h; 100 nM
OBSERVED PROPERTY: cell viability (%)
A number alone suffices; assume %.

**Q:** Fill in cell viability for record Cc1nccn1CCC(C(N)=O)(c1ccccc1)c1ccccc1
**A:** 97.5

**Q:** Identify the reported cell viability for the following entry. O=C(O)C1(C(=O)O)CCC1.[NH2-].[NH2-].[Pt+2]
**A:** 99.5

**Q:** Please give the documented cell viability of CC[C@H]1[C@@H](O)[C@@H]2[C@H](CC[C@]3(C)[C@@H]([C@H](C)CCOS(=O)(=O)O)CC[C@@H]23)[C@@]2(C)CC[C@@H](O)C[C@@H]12
**A:** 96.2

**Q:** Please report cell viability for the following molecule: O=C(/C=C/c1ccc2ccccc2n1)c1ccncc1
**A:** 110

**Q:** Give recorded cell viability. COC(=O)c1cnn(-c2ccc(F)cc2F)c1/C=N/NC(=S)NC(C)(C)C
**A:** 98.4

**Q:** Please report the measured cell viability for CCC(NC(C)C)C(O)c1ccc(O)c2[nH]c(=O)ccc12 (stereo not drawn)
**A:** 103

**Q:** Provide only the value of recorded cell viability for O=C1NC(=O)[C@@H](c2cn3c4c(cccc24)CCC3)[C@@H]1c1c[nH]c2ccccc12 [tivantinib]
**A:** 99.5

**Q:** Tell me cell viability reported for O=C(NCc1ccc(F)cc1)N1CCN2C(=O)OC(c3ccccc3)(c3ccccc3)[C@@H]2C1 (racemic)
**A:** 98

====

Field: drug sensitivity score. Provide a value for each of the compounds that follow.
test system: Calu-3; assay: drug sensitivity score (DSS) for viability; higher = more toxic; extreme values may be limits of the assay; settings: 72 h
Lab note: record the figure alone, no unit after it.

**Q:** # return recorded drug sensitivity score for input O=C(Nc1ccc2[nH]ccc2c1)c1ccccc1
**A:** 0

**Q:** Quickly give me recorded drug sensitivity score for Cc1cc(-c2cc(O)ccc2Cl)cc2nnc(Nc3ccc(OCCN4CCCC4)cc3)nc12
**A:** 6.5

**Q:** Identify the reported drug sensitivity score for the following entry. Cc1cc(N)c2ccccc2[n+]1CCCCCCCCCC[n+]1c(C)cc(N)c2ccccc21
**A:** 0.8

**Q:** Supply reported drug sensitivity score belonging to this compound: COC(=O)Nc1ccc(-c2nc(N3CCOCC3)c3cnn(C4CCN(Cc5cccnc5)CC4)c3n2)cc1
**A:** 14.2

**Q:** Please give measured drug sensitivity score of the following entry: CCCC(=O)Nc1ccc(OCC(O)CNC(C)C)c(C(C)=O)c1 (stereo not given)
**A:** 0

====

Can you tell me cell viability for the items I'm about to list?
system: U2OS; assay: cell viability relative to DMSO; higher = less toxic; conditions: 72 h; 100 nM
# unit: % | format: bare number

**Q:** Please give measured cell viability of the following entry: O=C1OC(c2ccc(O)cc2)(c2ccc(O)cc2)c2ccccc21
**A:** 99.7

**Q:** Please report cell viability for the following compound: CCCC(CCC)C(=O)O[C@H]1C[C@H]2CC[C@@H](C1)[N+]2(C)C
**A:** 90.3

**Q:** Quickly give me recorded cell viability for CC1(C)[C@@H](OC(=O)CCC(=O)O)CC[C@]2(C)[C@H]3C(=O)C=C4[C@@H]5C[C@@](C)(C(=O)O)CC[C@]5(C)CC[C@@]4(C)[C@]3(C)CC[C@@H]12 [CARBENOXOLONE SODIUM]
**A:** 101

**Q:** Read the entry O[C@H]1CC[C@H](Nc2nc(-c3ccccc3)nc3[nH]ccc23)CC1 and write its reported cell viability.
**A:** 97.7

====

tested on: A549-ACE2; experiment: drug-induced phospholipidosis relative to tamoxifen; higher = more phospholipidosis; settings: 30 µM; 24 h
Answer each item with its documented drug-induced phospholipidosis.
State the answer as a number, implicitly in %.

**Q:** # lookup: A549-ACE2 drug-induced phospholipidosis, key = COc1ccc2nc3c(c(N)c2c1)CCCC3
**A:** 83.8

**Q:** Write down the reported drug-induced phospholipidosis (system: A549-ACE2) of NC(=O)c1noc([C@H](CCCC2CCCCC2)CC(=O)NO)n1
**A:** 23.6

**Q:** Report its drug-induced phospholipidosis with A549-ACE2 as the test system: COc1cc2ncnc(Nc3cccc(Cl)c3)c2cc1OC
**A:** 3.18

**Q:** Under A549-ACE2, report drug-induced phospholipidosis for Cc1cccc(/C=N/Nc2cc(N3CCOCC3)n3nc(-c4ccncc4)cc3n2)c1
**A:** 97.8

====

tested on: U2OS; experiment: drug sensitivity score (DSS) for viability; higher = more toxic; extreme values may be limits of the assay; settings: 72 h
Counter-ions that a name gives are not always drawn.
OBSERVED PROPERTY: drug sensitivity score
Respond with the number and no other words.

**Q:** Retrieve drug sensitivity score measured for CC[C@@H]1/C=C(\C)C[C@H](C)C[C@H](OC)[C@H]2O[C@@](O)(C(=O)C(=O)N3CCCC[C@H]3C(=O)O[C@H](/C(C)=C/[C@@H]3CC[C@@H](O)[C@H](OC)C3)[C@H](C)[C@@H](O)CC1=O)[C@H](C)C[C@@H]2OC [ascomycin] and print it.
**A:** 0

**Q:** Consider the molecule O=c1ncccn1[C@@H]1O[C@H](CO)[C@@H](O)[C@H]1O [zebularine] . State its measured drug sensitivity score.
**A:** 0

**Q:** Answer with the recorded drug sensitivity score for the molecule listed here: C[C@]1(O)C[C@@H](c2nc(-c3ccc4ccc(-c5ccccc5)nc4c3)c3c(N)nccn32)C1 [linsitinib]
**A:** 3.3

**Q:** Determine its reported drug sensitivity score: CN[C@H]1CC[C@@H](c2ccc(Cl)c(Cl)c2)c2ccccc21 [SERTRALINE HYDROCHLORIDE]
**A:** 0.5

**Q:** Given O=C(O)C1CSCN1 (stereo not drawn) [timonacic] , respond with its drug sensitivity score.
**A:** 0

**Q:** Please list drug sensitivity score recorded for the molecule COC(=O)c1cnn(-c2ccc(F)cc2F)c1/C=N/NC(=S)NC(C)(C)C
**A:** 0

**Q:** For the molecule COc1ccc2[nH]c(I)c(CCNC(C)=O)c2c1 [2-iodomelatonin] , report drug sensitivity score.
**A:** 0

**Q:** For the molecule Cn1c(COP(=O)(NCCBr)NCCBr)cnc1[N+](=O)[O-] [TH-302] , give its reported drug sensitivity score.
**A:** 0

====

tested on: Caco-2; test: drug sensitivity score (DSS) for viability; higher = more toxic; extreme values may be limits of the assay; conditions: 72 h
I'd be grateful if you could share measured drug sensitivity score for these entries.
API note: the answer field is a bare number with no unit suffix.

**Q:** Supply reported drug sensitivity score belonging to this molecule: CC[C@H](CO)Nc1nc(Nc2cccc(-c3ccccn3)c2)c2ncn(C(C)C)c2n1 [DRF053-(R)]
**A:** 2.4

**Q:** Provide drug sensitivity score value for the following molecule: O=C(Nc1ccc(S(=O)(=O)Nc2ccccc2Cl)c(Cl)c1)c1ccccn1
**A:** 0

**Q:** Dear colleague, please send me the reported drug sensitivity score for O=C(Nc1ccc2[nH]ccc2c1)c1ccccc1 when you can.
**A:** 0

====

tested on: U2OS; assay: cell viability relative to DMSO; higher = less toxic; conditions: 72 h; 1 nM
Structures can show the parent of a compound that is named as a salt.
OBSERVED PROPERTY: cell viability (%)
Write the value in % as a bare number.

**Q:** # return recorded cell viability for entry CC(=O)c1ccc2c(c1)N(CCCN(C)C)c1ccccc1S2 [acepromazine]
**A:** 101

**Q:** Report cell viability for CN[C@H]1CC[C@@H](c2ccc(Cl)c(Cl)c2)c2ccccc21 [SERTRALINE HYDROCHLORIDE]
**A:** 103

**Q:** Kindly indicate its recorded cell viability. Item: CC(=O)NNC(=O)N1Cc2ccccc2Oc2ccc(Cl)cc21
**A:** 98.5

**Q:** Give the measured cell viability for O=C1OC(c2ccc(O)cc2)(c2ccc(O)cc2)c2ccccc21 [phenolphthalein]
**A:** 99.1

**Q:** For the compound O=C(Nc1ccc2[nH]ccc2c1)c1ccccc1 [OAC2] , give its reported cell viability.
**A:** 103

**Q:** Entry NC(=O)N1c2ccccc2CC(=O)c2ccccc21 [oxcarbazepine] needs its cell viability filled in; supply it.
**A:** 101

**Q:** Using known records, supply cell viability for CC(=O)NCCc1c(Cc2ccccc2)[nH]c2ccccc12 [luzindole]
**A:** 102

**Q:** Provide measured cell viability value, entry: CCn1cc(C(=O)O)c(=O)c2cnc(N3CCCC3)nc21 [piromidic-acid]
**A:** 99.8

**Q:** For O=C(CCCN1CCC(O)(c2ccc(Cl)cc2)CC1)c1ccc(F)cc1 [haloperidol] , write its cell viability.
**A:** 102

**Q:** Return reported cell viability. Input compound: Nc1nc(F)nc2c1ncn2[C@@H]1O[C@H](COP(=O)(O)O)[C@@H](O)[C@@H]1O [fludarabine-phosphate]
**A:** 103

**Q:** Supply measured cell viability of COc1ccc2c(c1)[C@]13CCCC[C@@H]1[C@H](C2)N(C)CC3 [dextromethorphan] in your reply.
**A:** 97.1

**Q:** Specify cell viability for Cc1cccc(OCC(O)CNC(C)(C)C)c1C (centres undefined) [xibenolol] and stop.
**A:** 102

**Q:** Name the recorded cell viability of the compound listed here: CC(C)(Sc1ccncc1-c1ccc(C#N)c2ccccc12)C(=O)O [verinurad]
**A:** 103

**Q:** Given the compound O=C1CC[C@@](c2ccccc2)(C2CCN(Cc3ccc(I)cc3)CC2)C(=O)N1 [iododexetimide] , write its reported cell viability.
**A:** 98.8

**Q:** Provide measured cell viability value, entry: O=C(O)c1ccc(OCCn2ccnc2)cc1 [dazoxiben]
**A:** 99.8

**Q:** Answer with the recorded cell viability of O=C(Nc1ccc(S(=O)(=O)Nc2ccccc2Cl)c(Cl)c1)c1ccccn1 only.
**A:** 94.8

**Q:** Check the records and state cell viability for C/C(=N\NC(=O)C(NC(=O)c1ccccc1)c1n[nH]c(=O)c2ccccc12)c1cccc(Br)c1 (centres undefined)
**A:** 99.5

**Q:** Specify measured cell viability for COc1ccc(NC(=O)c2ccc(-c3ccc(-c4noc(C)n4)cc3C)cc2)cc1OCCN(C)C .
**A:** 101

**Q:** For the compound COC(=O)Nc1ccc(-c2nc(N3CCOCC3)c3cnn(C4CCN(C(=O)OC)CC4)c3n2)cc1 [WYE-354] , report cell viability.
**A:** 99.3
